SYSTEM UNDER TEST: Lysine-specific histone demethylase 1A (Homo sapiens)
PROCEDURE TEXT: Inhibition of full length human fusion His6 tagged LSD1 expressed in Escherichia coli BL21(DE3) cells using H3K4me2 peptide substrate preincubated for 5 mins by peroxidase-coupled method
Would you kindly list IC50 for each of these compounds?
Numbers only, in nM.

{"COMPOUND": "CN1CCN(C(=O)CNC2CC2c2cccc(O)c2)CC1 (configuration not stated)", "UNITS LABEL": "nM", "IC50": 2400}

Query: Recorded IC50 for CN1CCN(C(=O)CNC2CC2c2cccc(OCC[C@H](NC(=O)c3ccccc3)C(=O)NCc3ccccc3)c2)CC1 (some centres not stated) , please?
Response: 380
